Source listed as ChEMBL document CHEMBL1914418.

target: Bcl-2-like protein 1 (Homo sapiens, UniProt Q07817, A142T); test: Displacement of BODIPY-Bak conjugated peptide from GST-tagged human Bcl-2-like protein 1 A142T mutant expressed in Escherichia coli BL21 cells at 10 uM after 3 hrs by fluorescence polarization competition assay
Sequence (Q07817 whole entry A142T): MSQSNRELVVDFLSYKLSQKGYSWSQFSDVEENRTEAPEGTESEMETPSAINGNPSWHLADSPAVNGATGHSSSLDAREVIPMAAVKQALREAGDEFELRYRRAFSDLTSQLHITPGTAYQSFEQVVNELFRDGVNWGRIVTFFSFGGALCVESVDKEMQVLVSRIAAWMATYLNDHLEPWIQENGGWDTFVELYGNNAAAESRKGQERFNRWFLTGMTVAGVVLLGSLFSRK
quantity: Ki (nM)

INSERT INTO results (mol_smiles, obs_value) VALUES
  ('CN(C)CC[C@H](CSc1ccccc1)Nc1ccc(S(=O)(=O)NC(=O)c2ccc(N3CCC(C)(C)CC3)cc2)cc1[N+](=O)[O-]', 720);

---

molecular target: Bcl-2-like protein 1 (Homo sapiens, UniProt Q07817, L130G); assay: Displacement of BODIPY-Bak conjugated peptide from GST-tagged human Bcl-2-like protein 1 L130G mutant expressed in Escherichia coli BL21 cells at 10 uM after 3 hrs by fluorescence polarization competition assay
Sequence (Q07817 whole entry L130G): as the sequence (Q07817 whole entry A142T) above, with L130G, T142A counted along it
Reported Ki values follow for various molecules
quantity: Ki (µM)

INSERT INTO measurements (molecule, obs_value) VALUES
  ('CN(C)CC[C@H](CSc1ccccc1)Nc1ccc(S(=O)(=O)NC(=O)c2ccc(N3CCN(Cc4ccccc4C(F)(F)F)CC3)cc2)cc1[N+](=O)[O-]', 0.2),
  ('CC(C)[C@H]1CN(Cc2ccccc2C(F)(F)F)CCN1c1ccc(C(=O)NS(=O)(=O)c2ccc(N[C@H](CCN(C)C)CSc3ccccc3)c([N+](=O)[O-])c2)cc1', 0.083),
  ('C[C@H]1CN(c2ccc(C(=O)NS(=O)(=O)c3ccc(N[C@H](CCN(C)C)CSc4ccccc4)c([N+](=O)[O-])c3)cc2)CCN1Cc1ccccc1C(F)(F)F', 0.099),
  ('CN(C)CC[C@H](CSc1ccccc1)Nc1ccc(S(=O)(=O)NC(=O)c2ccc(N3CCC(C)(C)CC3)cc2)cc1[N+](=O)[O-]', 0.086),
  ('CC1CN(c2ccc(C(=O)NS(=O)(=O)c3ccc(N[C@H](CCN(C)C)CSc4ccccc4)c([N+](=O)[O-])c3)cc2)CC(C)N1Cc1ccccc1C(F)(F)F (some centres not stated)', 0.14),
  ('CC(C)[C@@H]1CN(Cc2ccccc2C(F)(F)F)CCN1c1ccc(C(=O)NS(=O)(=O)c2ccc(N[C@H](CCN(C)C)CSc3ccccc3)c([N+](=O)[O-])c2)cc1', 0.28),
  ('C[C@@H]1CN(c2ccc(C(=O)NS(=O)(=O)c3ccc(N[C@H](CCN(C)C)CSc4ccccc4)c([N+](=O)[O-])c3)cc2)CCN1Cc1ccccc1C(F)(F)F', 0.081);
